IC50 values for the molecules below.
target_system: hNET (Homo sapiens, UniProt P23975)
Sequence (P23975 whole entry): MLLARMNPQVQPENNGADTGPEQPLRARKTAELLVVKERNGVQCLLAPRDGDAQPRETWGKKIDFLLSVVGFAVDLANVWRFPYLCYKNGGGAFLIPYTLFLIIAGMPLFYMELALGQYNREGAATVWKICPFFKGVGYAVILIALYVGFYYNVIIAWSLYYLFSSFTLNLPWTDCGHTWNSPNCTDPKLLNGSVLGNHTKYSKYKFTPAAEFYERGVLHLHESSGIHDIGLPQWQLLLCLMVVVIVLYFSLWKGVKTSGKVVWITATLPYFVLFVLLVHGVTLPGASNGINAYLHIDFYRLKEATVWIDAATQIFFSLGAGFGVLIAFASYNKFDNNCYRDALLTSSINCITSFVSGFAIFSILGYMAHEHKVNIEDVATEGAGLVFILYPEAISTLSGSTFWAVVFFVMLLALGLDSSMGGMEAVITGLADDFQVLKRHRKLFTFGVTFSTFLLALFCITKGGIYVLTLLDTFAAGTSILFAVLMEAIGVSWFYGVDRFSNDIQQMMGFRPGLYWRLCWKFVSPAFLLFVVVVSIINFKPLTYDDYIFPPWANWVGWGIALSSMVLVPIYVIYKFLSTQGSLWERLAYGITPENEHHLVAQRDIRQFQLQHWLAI
assay_name: Inhibition of hNET-mediated [3H]NE uptake into C6-hNET cells
Assay type: cell-based
Give the number; µM is assumed, so skip it.

In [3]: df
Out[3]:
                                   molecule  reported_endpoint  unit_spec  observed
0  CNC(C)C(=O)c1cccc(C(F)(F)F)c1 (stereo not drawn)               IC50         µM         3
1  CNC(C)C(=O)c1ccc(C(F)(F)F)cc1 (stereo not drawn)               IC50         µM         3

Okay, now this molecule:
// query Fill in the blank: the reported IC50 of CNC(C)C(=O)c1ccccc1C(F)(F)F (stereo not drawn) is ____.
// result 10

====

pEC50 values for the compounds below.
target_system: rNET (Rattus norvegicus)
Sequence (Q63380 1-617): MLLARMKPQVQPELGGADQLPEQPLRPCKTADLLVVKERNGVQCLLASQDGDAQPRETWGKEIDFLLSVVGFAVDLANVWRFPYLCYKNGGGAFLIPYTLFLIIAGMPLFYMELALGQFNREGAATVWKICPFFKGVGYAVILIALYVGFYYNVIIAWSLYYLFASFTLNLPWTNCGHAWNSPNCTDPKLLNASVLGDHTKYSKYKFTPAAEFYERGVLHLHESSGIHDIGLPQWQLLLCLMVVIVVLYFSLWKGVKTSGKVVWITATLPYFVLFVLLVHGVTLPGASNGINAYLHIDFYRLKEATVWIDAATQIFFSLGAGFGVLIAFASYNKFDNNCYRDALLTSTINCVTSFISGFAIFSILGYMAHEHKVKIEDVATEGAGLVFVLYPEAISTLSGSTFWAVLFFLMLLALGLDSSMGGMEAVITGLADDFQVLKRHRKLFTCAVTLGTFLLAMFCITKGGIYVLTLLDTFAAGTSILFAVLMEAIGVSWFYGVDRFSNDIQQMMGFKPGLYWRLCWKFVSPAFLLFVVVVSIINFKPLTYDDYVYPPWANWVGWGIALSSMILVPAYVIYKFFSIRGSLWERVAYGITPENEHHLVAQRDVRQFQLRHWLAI
assay_name: Drug-evoked [3H]MPP+ release via rNET in rat brain synaptosomes
Assay type: biochemical
condition_description: read-out: NET [3H]MPP+ release EC50, mean ±S.E.M.
Note: pEC50 values are expressed as the negative base-10 logarithm of concentration in M.

Consider the worked cases shown below.
>>> print(df.to_string())
                                   compound  reported_endpoint  observed
0  CNC(C)C(=O)c1ccccc1 (stereo not shown) [Methcathinone, reference compound]              pEC50      7.70
1  CNC(C)C(=O)c1ccc(C(F)(F)F)cc1 (stereo not shown)              pEC50      6.05
2  CNC(C)C(=O)c1cccc(C(F)(F)F)c1 (stereo not shown)              pEC50      5.57

Okay, now this compound:
// query Fill in the blank: the reported pEC50 of CNC(C)C(=O)c1ccccc1C(F)(F)F (stereo not shown) is ____.
// result 5.66

====

target_system: rSERT (Rattus norvegicus, UniProt P31652)
Sequence (P31652 whole entry): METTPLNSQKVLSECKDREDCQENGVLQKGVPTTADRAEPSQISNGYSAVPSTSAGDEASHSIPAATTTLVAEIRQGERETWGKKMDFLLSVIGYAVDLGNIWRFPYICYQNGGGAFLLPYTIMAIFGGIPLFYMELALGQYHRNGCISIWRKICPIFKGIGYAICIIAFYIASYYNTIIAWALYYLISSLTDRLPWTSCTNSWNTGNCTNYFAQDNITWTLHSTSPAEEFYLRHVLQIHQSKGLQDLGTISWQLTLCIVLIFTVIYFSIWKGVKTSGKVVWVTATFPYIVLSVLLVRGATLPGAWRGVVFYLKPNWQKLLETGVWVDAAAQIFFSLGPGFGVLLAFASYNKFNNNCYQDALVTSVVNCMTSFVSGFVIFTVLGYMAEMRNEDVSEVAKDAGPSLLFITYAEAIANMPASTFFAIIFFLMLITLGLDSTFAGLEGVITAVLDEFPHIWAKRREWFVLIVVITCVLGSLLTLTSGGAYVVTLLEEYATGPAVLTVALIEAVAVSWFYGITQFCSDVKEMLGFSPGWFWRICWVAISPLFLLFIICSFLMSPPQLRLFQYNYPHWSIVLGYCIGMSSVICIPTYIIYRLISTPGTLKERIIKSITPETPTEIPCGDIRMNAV
assay_name: Drug-evoked [3H]5-HT release via rSERT in rat brain synaptosomes
Type: biochemical
condition_description: read-out: SERT [3H]5-HT release EC50; rat brain synaptosomes; mean ±S.E.M.
reported_endpoint: pEC50
Note: pEC50 values are expressed as the negative base-10 logarithm of concentration in M.

// query Fill in the blank: the reported pEC50 of CNC(C)C(=O)c1ccccc1 (stereo not shown) [Methcathinone, reference compound] is ____.
// result 5.40

====

target_system: rSERT (Rattus norvegicus, UniProt P31652)
assay_name: Drug-evoked [3H]5-HT release via rSERT in rat brain synaptosomes
Assay type: biochemical
condition_description: EC50 for [3H]5-HT release at rSERT, rat brain synaptosomes
reported_endpoint: pEC50
Note: pEC50 values are expressed as the negative base-10 logarithm of concentration in M.

// query Please provide the recorded pEC50 for CNC(C)C(=O)c1ccc(C(F)(F)F)cc1 (stereo not shown) , tested on rSERT (Rattus norvegicus, UniProt P31652).
// result 6.73

====

EC50 values for the compounds below.
target_system: rSERT (Rattus norvegicus, UniProt P31652)
assay_name: Drug-evoked [3H]5-HT release via rSERT in rat brain synaptosomes
Assay type: biochemical
condition_description: SERT [3H]5-HT release EC50, rat brain synaptosomes; mean ±S.E.M.

Consider the worked cases shown below.
>>> print(df.to_string())
                                   compound  reported_endpoint  observed
0  CNC(C)C(=O)c1ccccc1C(F)(F)F (stereo not drawn)               EC50   8400 nM
1  CNC(C)C(=O)c1ccc(C(F)(F)F)cc1 (stereo not drawn)               EC50    190 nM

Okay, now this compound:
// query Fill in the blank: the reported EC50 of CNC(C)C(=O)c1cccc(C(F)(F)F)c1 (stereo not drawn) is ____.
// result 380 nM
